Tested on: 855422-203-R-J1-PDC complex spheroid growth;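 note: spheroids exposed to agents for seven days before readout; percent of DMSO vehicle control luminescence viability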
Test: Anticancer human tumor 855422-203-R-J1-PDC patient-derived bladder carcinoma cell line growth inhibition [AhR]
Conditions: second compound 3.16 µM; first compound 0.00316 µM; active compounds read low
property: viability, T/C

molecule: Nc1ncn(C2CC(O)C(CO)O2)c(=O)n1 (stereo not drawn) + CC(CO)NC(=O)c1cc(-c2ccc(Cl)cc2)nn(-c2cnn(C)c2)c1=O
viability, T/C: 95.3%

molecule: CC1COCCN1c1cc(-c2ccnn2C)c2ccnc(-c3ccn[nH]3)c2n1 (stereo not drawn) + Cc1cncc(-c2nc(NCCc3c[nH]c4ccccc34)c3ncn(C(C)C)c3n2)c1
viability, T/C: 75.6%

Let us examine a further case.
Which viability, T/C is listed for CC1COCCN1c1cc(-c2ccnn2C)c2ccnc(-c3ccn[nH]3)c2n1 (stereo not drawn) + Cc1ccccc1N=Nc1ccc(NC(=O)c2ccnn2C)c(C)c1 ?
88.6%
